# maps each entry to its Ki
- System tested: JAK3 (Homo sapiens)
- Sequence (P52333 whole entry, species assumed): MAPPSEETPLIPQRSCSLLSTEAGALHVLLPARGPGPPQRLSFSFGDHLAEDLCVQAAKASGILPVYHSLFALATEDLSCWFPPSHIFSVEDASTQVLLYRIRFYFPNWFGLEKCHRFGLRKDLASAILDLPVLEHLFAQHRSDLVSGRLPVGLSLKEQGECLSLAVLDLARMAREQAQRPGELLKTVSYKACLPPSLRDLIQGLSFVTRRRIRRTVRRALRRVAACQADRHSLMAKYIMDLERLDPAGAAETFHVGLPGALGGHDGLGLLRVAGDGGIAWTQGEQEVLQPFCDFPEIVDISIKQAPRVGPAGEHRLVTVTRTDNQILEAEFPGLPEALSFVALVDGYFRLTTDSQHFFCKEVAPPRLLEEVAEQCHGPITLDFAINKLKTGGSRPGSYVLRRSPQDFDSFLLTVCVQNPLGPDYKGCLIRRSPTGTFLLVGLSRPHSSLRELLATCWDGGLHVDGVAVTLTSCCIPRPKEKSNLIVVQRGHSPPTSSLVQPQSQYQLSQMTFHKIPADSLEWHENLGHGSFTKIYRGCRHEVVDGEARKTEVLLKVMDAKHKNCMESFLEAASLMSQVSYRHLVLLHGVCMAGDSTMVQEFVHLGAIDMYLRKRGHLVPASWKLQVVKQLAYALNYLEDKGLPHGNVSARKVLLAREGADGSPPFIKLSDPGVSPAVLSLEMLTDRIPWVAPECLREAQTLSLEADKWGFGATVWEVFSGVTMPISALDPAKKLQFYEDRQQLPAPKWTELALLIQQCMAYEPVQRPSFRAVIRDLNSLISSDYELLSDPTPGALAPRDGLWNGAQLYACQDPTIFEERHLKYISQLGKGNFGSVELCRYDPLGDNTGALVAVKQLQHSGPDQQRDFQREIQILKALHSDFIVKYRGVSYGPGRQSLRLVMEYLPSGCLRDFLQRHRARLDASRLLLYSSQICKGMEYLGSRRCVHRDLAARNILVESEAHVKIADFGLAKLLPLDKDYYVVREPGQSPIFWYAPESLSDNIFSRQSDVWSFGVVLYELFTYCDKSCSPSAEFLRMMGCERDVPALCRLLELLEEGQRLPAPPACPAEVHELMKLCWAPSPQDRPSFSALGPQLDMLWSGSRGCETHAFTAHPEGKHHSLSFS
- Test summary: JAK3 inhibition assay (radiometric 33P filter assay)
- Assay type: biochemical
- Settings: 1 μM poly(Glu)4Tyr, 5 μM ATP, 1 nM JAK3, 25° C.; read-out: JAK3 inhibition data (Ki)
Metric name: Ki

                                    compound  recorded_measurement
 0  CNc1ccc(Nc2nc(N)n(-c3cc(N4CCCN(C(C)=O)CC4)ncn3)n2)cc1               < 50 nM
 1  CC(=O)N1[C@H](C)CN(c2cc(-n3nc(Nc4ccc(N5CCN(C(=O)OC(C)C)CC5)cc4)nc3N)ccn2)C[C@@H]1C               < 50 nM
 2  CCOC(=O)CCNC(=O)Nc1ccc(Nc2nc(N)n(-c3cc(N4CCCN(C(C)=O)CC4)ncn3)n2)cc1               < 50 nM
 3  COC1CCC(C(=O)Nc2ccc(Nc3nc(N)n(-c4cc(N5CCCN(C(C)=O)CC5)ncn4)n3)cc2)CC1 (stereo not drawn)               < 50 nM
 4  CCS(=O)(=O)N1CCN(c2ccc(Nc3nc(N)n(-c4ccnc(N5CCCN(C(=O)OC)CC5)c4)n3)cc2)CC1          50 to 500 nM
 5  CC(=O)N1CCCN(c2cc(-n3nc(Nc4ccc(N(C)C(=O)OCC(C)(C)C)cc4)nc3N)ncn2)CC1               < 50 nM
 6  CCNC(=O)Nc1ccc(Nc2nc(N)n(-c3cc(N4C[C@@H](C)N(C(C)=O)[C@@H](C)C4)ncn3)n2)cc1               < 50 nM
 7  CCOC(=O)N1CCN(c2ccc(Nc3nc(N)n(-c4cc(N5CCCN(C(C)=O)CC5)ncn4)n3)cc2)CC1               < 50 nM
 8  CC(=O)N1CCCN(c2cc(-n3nc(Nc4ccc(NC(=O)NC(C)(C)C)cc4)nc3N)ncn2)CC1               < 50 nM
 9  CCOC(=O)N1CCN(c2ccc(Nc3nc(N)n(-c4ccnc(N5CCCN(C(=O)OC)CC5)c4)n3)cc2)CC1          50 to 500 nM
10  CCOC(=O)CCNC(=O)Nc1ccc(Nc2nc(N)n(-c3cc(N4C[C@@H](C)N(C(C)=O)[C@@H](C)C4)ncn3)n2)cc1               < 50 nM
11  CC(=O)N1[C@H](C)CN(c2cc(-n3nc(Nc4ccc(NC(=O)NC(C)(C)C)cc4)nc3N)ncn2)C[C@@H]1C               < 50 nM
12  Nc1nc(Nc2ccc(N3CCOCC3)cc2)nn1-c1cc(N2CCN3C(=O)CC[C@H]3C2)ncn1               < 50 nM
13  CC(=O)N1CCCN(c2cc(-n3nc(Nc4ccc(N5CCOCC5)cc4)nc3N)ccn2)CC1               < 50 nM
14  CC(=O)N1CCCN(c2cc(-n3nc(Nc4ccc(N5CCNCC5)cc4)nc3N)ncn2)CC1               < 50 nM
